Just for reference, patent US9695193B2 is where these values come from.

Task for the reader: assign each of the following compounds its reported Avg Normalized % maximal activity.
Target: PfENT1 (Plasmodium falciparum, UniProt Q8IDM6)
Construct: expressed in transfected cells; host or cells: fui1Δ yeast (Saccharomyces cerevisiae), co-expressing GFP
Format: cell-based
Settings: primary HTS, compounds at 10 μM, 125 μM 5-FUrd
Report the figure in % without appending any unit label.

query: Consider the compound C[C@@H]1C[C@@H](O[C@H]2[C@H](O[C@H]3CC[C@@]4(C)C(CC[C@]5(C)[C@@H]4CC=C4C6CC(C)(C)CC[C@]6(C(=O)O[C@@H]6O[C@H](CO[C@@H]7O[C@H](CO)[C@@H](O[C@@H]8O[C@@H](C)[C@H](O)[C@@H](O)[C@H]8O)[C@H](O)[C@H]7O)[C@@H](O)[C@H](O)[C@H]6O)CC[C@]45C)[C@]3(C)CO)OC[C@H](O)[C@@H]2O)[C@H](O)[C@H](O)[C@H]1O (stereo partly shown) [compound 38] and give its measured Avg Normalized % maximal activity.
result: 10.61

query: Consider the compound COc1ccccc1C(=O)Nc1nnc(COc2ccc(C)cc2)s1 [compound 158] and give its measured Avg Normalized % maximal activity.
result: 2.12

query: Consider the compound Cn1nc(-c2ccc(C(=O)N3CCCCC3)cc2)c2ccccc2c1=O [compound 59] and give its measured Avg Normalized % maximal activity.
result: 7.59

query: Consider the compound Cn1cc(C(=O)C(=O)Nc2ccc(C(=O)N3CCCC3)cc2)c2ccccc21 [compound 5] and give its measured Avg Normalized % maximal activity.
result: 64.07

query: Consider the compound CCOc1ccc(N(CC(=O)N2CCN(C)CC2)S(C)(=O)=O)cc1 [compound 50] and give its measured Avg Normalized % maximal activity.
result: 8.23

query: Consider the compound COc1ccc(OC)c(NC(=O)COc2ccc3ccccc3c2)c1 [compound 163] and give its measured Avg Normalized % maximal activity.
result: 2.04

query: Consider the compound COc1cccc(C(=O)Nc2ccc(-c3nc4ncccc4o3)cc2C)c1 [compound 89] and give its measured Avg Normalized % maximal activity.
result: 5.35

query: Consider the compound O=C(NC(=O)c1ccccc1)Nc1cc(N2CCOCC2)ncn1 [compound 43] and give its measured Avg Normalized % maximal activity.
result: 9.52

query: Consider the compound CC(=O)Nc1ccc2nc(SCC(=O)NC3CCCCC3)sc2c1 [compound 160] and give its measured Avg Normalized % maximal activity.
result: 2.09

query: Consider the compound Cc1cccc(C(=O)Nc2ccc(-c3nnc(-c4ccco4)o3)cc2)c1 [compound 44] and give its measured Avg Normalized % maximal activity.
result: 9.07

query: Consider the compound COc1ccc(Cl)cc1Nc1nnc(-c2cnccn2)s1 [compound 32] and give its measured Avg Normalized % maximal activity.
result: 12.03

query: Consider the compound CC(=O)c1ccc(NC(=O)CSc2nc3cc(C)ccc3[nH]2)cc1 [compound 147] and give its measured Avg Normalized % maximal activity.
result: 2.77

query: Consider the compound C[N+]1(C)C2CC(OC(=O)[C@H](CO)c3ccccc3)CC1C1OC12 (stereo partly shown) [compound 135] and give its measured Avg Normalized % maximal activity.
result: 3.47

query: Consider the compound O=C(Nc1c(-c2ccccc2)nc2ccc(Cl)cn12)c1ccccc1 [compound 167] and give its measured Avg Normalized % maximal activity.
result: 1.96

query: Consider the compound COc1ccc(NC(=O)C2CCN(C(=O)c3ccc(F)cc3)CC2)c(OC)c1 [compound 154] and give its measured Avg Normalized % maximal activity.
result: 2.30

query: Consider the compound O=C(CSc1nnc(-c2ccc(Cl)cc2Cl)o1)N1CCCCC1 [compound 45] and give its measured Avg Normalized % maximal activity.
result: 8.97

* * *

Target: PfENT1 (Plasmodium falciparum, UniProt Q8IDM6)
Construct: expressed in transfected cells; host or cells: fui1Δ yeast (Saccharomyces cerevisiae), co-expressing GFP
Assay type: cell-based
Settings: primary HTS, compounds at 10 μM, 125 μM 5-FUrd
experimental-readout: Avg Normalized % maximal activity (%)
Report the figure in % without appending any unit label.

query: Consider the compound CCC(=O)Nc1cccc(-c2nnc(-c3ccccc3C)o2)c1 and give its measured Avg Normalized % maximal activity.
result: 4.37

query: Consider the compound O=C1OC(CO)[C@@H](O)C(O)C1O (some centres unmarked) and give its measured Avg Normalized % maximal activity.
result: 4.76

query: Consider the compound Cc1cccc(N2C(=O)CC(NC3CCCC3)C2=O)c1 (centres unmarked) and give its measured Avg Normalized % maximal activity.
result: 4.72

query: Consider the compound CCCCC(=O)Nc1ccc(NC(=O)c2cccs2)cc1OC and give its measured Avg Normalized % maximal activity.
result: 2.17

query: Consider the compound COc1ccc(NC(=O)C(C)Oc2ccc3oc(=O)cc(C)c3c2)cc1 (centres unmarked) and give its measured Avg Normalized % maximal activity.
result: 5.42

query: Consider the compound Cc1ccc(NC(=O)Nc2ccc(F)cc2)nc1 and give its measured Avg Normalized % maximal activity.
result: 1.85

query: Consider the compound CSc1ccccc1C(=O)Nc1nc(=O)c2ccccc2[nH]1 and give its measured Avg Normalized % maximal activity.
result: 5.22

query: Consider the compound O=C(Nc1ccc(-c2nc3ccccc3o2)cc1)C1CCCO1 (centres unmarked) and give its measured Avg Normalized % maximal activity.
result: 8.36

query: Consider the compound COC(=O)c1cc(NC(=O)c2cc3ccccc3o2)ccc1N1CCOCC1 and give its measured Avg Normalized % maximal activity.
result: 6.43

query: Consider the compound CC[S+](CC)c1c([O-])[nH]c(=O)n(Cc2ccc(F)cc2)c1=O and give its measured Avg Normalized % maximal activity.
result: 3.65

query: Consider the compound Cc1ccnc(NC(=O)c2ccc(NC(=O)c3ccco3)cc2)c1 and give its measured Avg Normalized % maximal activity.
result: 24.47

query: Consider the compound COc1ccc(NC(=O)COc2ccc3ccc(=O)oc3c2)cc1 and give its measured Avg Normalized % maximal activity.
result: 6.16

query: Consider the compound COc1ccc(C(=O)Nc2cccc(-c3nc4ncccc4o3)c2)cc1 and give its measured Avg Normalized % maximal activity.
result: 23.87

query: Consider the compound O=C(c1cc2nc3c(c(C(F)(F)F)n2n1)CCc1ccccc1-3)N1CCCC1 and give its measured Avg Normalized % maximal activity.
result: 1.74

query: Consider the compound COCc1cc(C)nc2sc(C(=O)Nc3cccc(OC)c3)c(N)c12 and give its measured Avg Normalized % maximal activity.
result: 7.94

query: Consider the compound O=C(Nc1cccc(-c2cn3ccsc3n2)c1)c1ccccc1F and give its measured Avg Normalized % maximal activity.
result: 19.78

query: Consider the compound O=c1[nH]c(/C=C/c2ccccc2Cl)nc2ccccc12 and give its measured Avg Normalized % maximal activity.
result: 21.82

query: Consider the compound CCOc1ccc(-c2noc(CCCC(=O)N3CCCCC3)n2)cc1OC and give its measured Avg Normalized % maximal activity.
result: 15.69

query: Consider the compound CC(C(=O)O)c1ccc(-c2ccccc2)c(F)c1 (centres unmarked) and give its measured Avg Normalized % maximal activity.
result: 6.18

query: Consider the compound COc1c(C)cccc1C(=O)Nc1cc(-c2nc3ncccc3o2)ccc1C and give its measured Avg Normalized % maximal activity.
result: 4.13

* * *

Task for the reader: assign each of the following molecules its reported pIC50.
Target: PfENT1-HA-CO (Plasmodium falciparum, UniProt Q8IDM6)
Construct: HA
Experiment: Concentration-dependent rescue of PfENT1-HA-CO-expressing fui1Δ yeast from 5-FUrd induced death
By convention, pIC50 is the negative base-10 log of a molar concentration.

query: Consider the molecule O=C(Nc1ccc(-c2nnc(-c3ccco3)o2)cc1)c1ccco1 and give its measured pIC50.
result: 5.24

query: Consider the molecule O=C(Nc1cccc(-c2nc3ncccc3o2)c1)c1cccc(F)c1 and give its measured pIC50.
result: 5.24

query: Consider the molecule COc1ccccc1C(=O)Nc1cccc(-c2nc3ncccc3o2)c1 and give its measured pIC50.
result: 5.19

query: Consider the molecule O=C(Nc1ccc(Cl)c(-c2nc3ncccc3o2)c1)c1cccs1 and give its measured pIC50.
result: 5.27

* * *

Target: PfENT1-CO (Plasmodium falciparum, UniProt Q8IDM6)
Sequence (Q8IDM6 whole entry): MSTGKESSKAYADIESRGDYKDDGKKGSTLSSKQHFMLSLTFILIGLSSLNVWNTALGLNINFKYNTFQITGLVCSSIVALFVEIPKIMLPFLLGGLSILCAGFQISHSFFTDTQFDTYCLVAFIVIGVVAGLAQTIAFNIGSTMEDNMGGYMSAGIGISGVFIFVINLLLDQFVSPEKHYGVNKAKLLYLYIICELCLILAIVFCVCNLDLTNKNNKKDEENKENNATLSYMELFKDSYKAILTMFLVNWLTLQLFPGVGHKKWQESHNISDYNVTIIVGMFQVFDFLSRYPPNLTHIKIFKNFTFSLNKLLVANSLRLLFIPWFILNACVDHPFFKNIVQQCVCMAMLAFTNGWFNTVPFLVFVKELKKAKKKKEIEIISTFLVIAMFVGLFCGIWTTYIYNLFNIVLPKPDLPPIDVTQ
Assay: [3H]adenosine uptake into PfENT1-CO expressing ade2Δ yeast
Settings: uptake over 15 minutes; Mean ± SD, N ≧ 3
experimental-readout: IC50 (nM)
Report the figure in nM without appending any unit label.

query: Short answer please: IC50, PfENT1-CO (Plasmodium falciparum, UniProt Q8IDM6), entry COc1cc(COc2ccc3c(C)cc(=O)oc3c2)cc(OC)c1OC [HTS Rank #3]
result: 2.4

query: Short answer please: IC50, PfENT1-CO (Plasmodium falciparum, UniProt Q8IDM6), entry O=C(Nc1cccc(-c2nc3ncccc3o2)c1)c1cccc(F)c1 [compound 6]
result: 9.6

query: Short answer please: IC50, PfENT1-CO (Plasmodium falciparum, UniProt Q8IDM6), entry Cn1cc(C(=O)C(=O)Nc2ccc(C(=O)N3CCCC3)cc2)c2ccccc21 [compound 5]
result: 22.7

query: Short answer please: IC50, PfENT1-CO (Plasmodium falciparum, UniProt Q8IDM6), entry COc1ccccc1C(=O)Nc1cccc(-c2nc3ncccc3o2)c1 [compound 7]
result: 10.9

query: Short answer please: IC50, PfENT1-CO (Plasmodium falciparum, UniProt Q8IDM6), entry O=C(Nc1ccc2nc(NC(=O)c3ccco3)sc2c1)c1ccco1 [compound 1]
result: 3

query: Short answer please: IC50, PfENT1-CO (Plasmodium falciparum, UniProt Q8IDM6), entry O=C(Nc1ccc(-c2nnc(-c3ccco3)o2)cc1)c1ccco1 [compound 4]
result: 13.7

query: Short answer please: IC50, PfENT1-CO (Plasmodium falciparum, UniProt Q8IDM6), entry O=C(Nc1ccc(Cl)c(-c2nc3ncccc3o2)c1)c1cccs1 [compound 19]
result: 38.4

query: Short answer please: IC50, PfENT1-CO (Plasmodium falciparum, UniProt Q8IDM6), entry O=C(Nc1ccc(-c2nc3ncccc3o2)cc1)c1ccccc1Br [compound 2]
result: 10.1
